test: Clearance in C57BL/6 mouse at 30 mg/kg, IG measured for 24 hrs by LC-MS/MS analysis; type: ADME, organism-based; conditions: in vivo, po
quantity: CL/F (mL/min/kg)
Expressed in mL/min/kg, but write only the number.

> print(dat)
                  compound.structure.string   val
1  CN1CCC(C(=O)Nc2ccc3c(c2)/C(=C2/S/C(=N/c4cccc(Cl)c4Cl)NC2=O)C(=O)N3)CC1  4.83

Request: For the compound O=C1S/C(=N\c2ccccc2Cl)N/C1=C1\C(=O)Nc2ccc(F)cc21 , report CL/F.
Response: 7.67

* * *

biological target: Mitogen-activated protein kinase 8 (Homo sapiens, UniProt P45983); assay: Inhibition of JNK1 (unknown origin) at 10 uM by radiometric assay relative to control
Sequence (P45983 whole entry): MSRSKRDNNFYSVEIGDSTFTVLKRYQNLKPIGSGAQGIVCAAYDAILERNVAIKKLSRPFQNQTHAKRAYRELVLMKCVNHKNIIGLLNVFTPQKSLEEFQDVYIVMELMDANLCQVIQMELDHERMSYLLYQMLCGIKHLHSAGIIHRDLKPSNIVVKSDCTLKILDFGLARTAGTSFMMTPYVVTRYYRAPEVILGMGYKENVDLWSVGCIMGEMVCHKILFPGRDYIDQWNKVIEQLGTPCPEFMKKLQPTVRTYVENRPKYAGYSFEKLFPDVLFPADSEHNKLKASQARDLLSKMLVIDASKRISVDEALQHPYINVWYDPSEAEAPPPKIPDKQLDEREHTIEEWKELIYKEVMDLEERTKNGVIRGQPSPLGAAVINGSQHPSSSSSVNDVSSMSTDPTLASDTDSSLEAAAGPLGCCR
quantity: inhibition (%)
Expressed in %, but write only the number.

Completed entries (count: 5):
> print(dat)
                  compound.structure.string                             tested.target   val
1  O=C1N/C(=N\c2ccccc2F)S/C1=C1\C(=O)Nc2ccc(Cl)cc21  Mitogen-activated protein kinase 8 (Homo sapiens, UniProt P45983)     0
2  CCN(CC)c1ccc2c(c1)/C(=C1/S/C(=N/c3cccc(Cl)c3Cl)NC1=O)C(=O)N2  Mitogen-activated protein kinase 8 (Homo sapiens, UniProt P45983)     4
3  O=C1N/C(=N\c2cccc(Cl)c2Cl)S/C1=C1\C(=O)Nc2ccc(N3CCCC3)cc21  Mitogen-activated protein kinase 8 (Homo sapiens, UniProt P45983)  -4.5
4  O=C1N/C(=N\c2c(Cl)ccc(Cl)c2Cl)S/C1=C1\C(=O)Nc2ccc(F)cc21  Mitogen-activated protein kinase 8 (Homo sapiens, UniProt P45983)   6.5
5  O=C1N/C(=N\c2c(F)cccc2F)S/C1=C1\C(=O)Nc2ccc(F)cc21  Mitogen-activated protein kinase 8 (Homo sapiens, UniProt P45983)    -9

Request: Name the value of inhibition reported for CN1C(=O)/C(=C2/C(=O)Nc3ccc(F)cc32)S/C1=N/c1cccc(F)c1 when tested on Mitogen-activated protein kinase 8 (Homo sapiens, UniProt P45983).
Response: 14

Request: Name the value of inhibition reported for Cc1ccc2c(c1)/C(=C1/S/C(=N/c3cccc(Cl)c3Cl)NC1=O)C(=O)N2 when tested on Mitogen-activated protein kinase 8 (Homo sapiens, UniProt P45983).
Response: -8.5

Request: Name the value of inhibition reported for O=C1N/C(=N\C2CCCC2)S/C1=C1\C(=O)Nc2ccc(F)cc21 when tested on Mitogen-activated protein kinase 8 (Homo sapiens, UniProt P45983).
Response: -1.3

Request: Name the value of inhibition reported for O=C1N/C(=N\c2ccccc2Cl)S/C1=C1\C(=O)Nc2ccc([N+](=O)[O-])cc21 when tested on Mitogen-activated protein kinase 8 (Homo sapiens, UniProt P45983).
Response: -4

* * *

target: Mitogen-activated protein kinase 9 (Homo sapiens); assay: Inhibition of JNK2 (unknown origin) at 10 uM by radiometric assay relative to control
Sequence (P45984 whole entry, looked up): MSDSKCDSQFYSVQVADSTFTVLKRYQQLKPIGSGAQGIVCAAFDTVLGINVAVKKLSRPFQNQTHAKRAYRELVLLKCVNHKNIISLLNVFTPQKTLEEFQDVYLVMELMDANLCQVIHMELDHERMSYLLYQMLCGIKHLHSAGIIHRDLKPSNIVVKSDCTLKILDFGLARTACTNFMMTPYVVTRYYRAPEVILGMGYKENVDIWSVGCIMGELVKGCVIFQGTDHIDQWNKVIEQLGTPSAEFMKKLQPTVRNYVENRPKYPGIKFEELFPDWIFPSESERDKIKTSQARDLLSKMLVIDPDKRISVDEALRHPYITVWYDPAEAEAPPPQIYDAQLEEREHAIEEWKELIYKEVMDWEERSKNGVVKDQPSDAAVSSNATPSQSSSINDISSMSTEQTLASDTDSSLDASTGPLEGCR
Below, each of the molecules is paired with its reported inhibition value.
Expressed in %, but write only the number.

> print(dat)
                  compound.structure.string   val
1  CCN(CC)CC(=O)Nc1ccc2c(c1)/C(=C1/S/C(=N/c3cccc(Cl)c3Cl)NC1=O)C(=O)N2  23.5
2  O=C1N/C(=N\c2cccc(F)c2F)S/C1=C1\C(=O)Nc2ccc(F)cc21   3.7
3  O=C1N/C(=N\c2c(F)cccc2F)S/C1=C1\C(=O)Nc2ccc(Cl)cc21  57.3
4  CN(C)c1ccc2c(c1)/C(=C1/S/C(=N/c3cccc(Cl)c3Cl)NC1=O)C(=O)N2    10
5  O=C1N/C(=N\c2cccc(Cl)c2Cl)S/C1=C1\C(=O)Nc2ccc([N+](=O)[O-])cc21     2

Continue with the molecule presented below.
Request: For the molecule CCN(CC)CCC(=O)Nc1ccc2c(c1)/C(=C1/S/C(=N/c3cccc(Cl)c3Cl)NC1=O)C(=O)N2 , report inhibition.
Response: 30

* * *

biological target: Mitogen-activated protein kinase 10 (Homo sapiens, UniProt P53779); assay: Inhibition of JNK3 (unknown origin) at 10 uM by radiometric assay relative to control
Sequence (P53779 whole entry): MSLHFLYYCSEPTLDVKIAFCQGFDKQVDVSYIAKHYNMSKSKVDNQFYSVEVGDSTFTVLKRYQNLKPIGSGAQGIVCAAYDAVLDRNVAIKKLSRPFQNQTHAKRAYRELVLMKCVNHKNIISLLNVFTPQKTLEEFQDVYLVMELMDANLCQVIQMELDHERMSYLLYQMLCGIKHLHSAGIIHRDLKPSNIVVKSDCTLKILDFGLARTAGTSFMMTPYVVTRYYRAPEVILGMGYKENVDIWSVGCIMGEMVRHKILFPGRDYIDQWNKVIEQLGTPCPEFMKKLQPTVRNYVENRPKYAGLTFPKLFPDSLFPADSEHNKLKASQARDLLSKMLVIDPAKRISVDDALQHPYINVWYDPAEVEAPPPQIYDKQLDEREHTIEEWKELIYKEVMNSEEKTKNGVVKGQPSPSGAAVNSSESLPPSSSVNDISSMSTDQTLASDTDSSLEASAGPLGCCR
Decision: inhibition compared against 70%; not below it gives 1.0, below it gives 0.0.

Check out these entries, answers already filled in.
> print(dat)
                  compound.structure.string  assigned.class
1  O=C(CN1CCCC1)Nc1ccc2c(c1)/C(=C1/S/C(=N/c3cccc(Cl)c3Cl)NC1=O)C(=O)N2             1.0
2  O=C1N/C(=N\c2cccc(Cl)c2Cl)S/C1=C1\C(=O)Nc2ccc(I)cc21             1.0
3  O=C1N/C(=N\c2cccc(Cl)c2)S/C1=C1\C(=O)Nc2ccccc21             1.0
4  O=C1N/C(=N\c2cccc(F)c2F)S/C1=C1\C(=O)Nc2ccc(Cl)cc21             1.0
5  CN(C)c1ccc2c(c1)/C(=C1/S/C(=N/c3cccc(Cl)c3Cl)NC1=O)C(=O)N2             1.0
6  CN1CCC(C(=O)Nc2ccc3c(c2)/C(=C2/S/C(=N/c4cccc(Cl)c4Cl)NC2=O)C(=O)N3)CC1             1.0
7  O=C1N/C(=N\c2cccc(Cl)c2)S/C1=C1\C(=O)Nc2ccc([N+](=O)[O-])cc21             1.0
8  O=C1N/C(=N\c2cccc(Cl)c2Cl)S/C1=C1\C(=O)Nc2ccc(N3CCCC3)cc21             0.0

Request: Can O=C1N/C(=N\c2cccc(F)c2)S/C1=C1\C(=O)Nc2ccc(F)cc21 be said to have inhibition at or above 70%?
Response: 0.0

Request: Can O=C(CN1CCCCC1)Nc1ccc2c(c1)/C(=C1/S/C(=N/c3cccc(Cl)c3Cl)NC1=O)C(=O)N2 be said to have inhibition at or above 70%?
Response: 1.0

Request: Can O=C1N/C(=N\c2cccc(Cl)c2Cl)S/C1=C1\C(=O)Nc2ccc(Cl)cc21 be said to have inhibition at or above 70%?
Response: 1.0

Request: Can CCN(CC)c1ccc2c(c1)/C(=C1/S/C(=N/c3cccc(Cl)c3Cl)NC1=O)C(=O)N2 be said to have inhibition at or above 70%?
Response: 0.0

Request: Can O=C1N/C(=N\c2ccccc2C(F)(F)F)S/C1=C1\C(=O)Nc2ccc(F)cc21 be said to have inhibition at or above 70%?
Response: 1.0

* * *

Below, each of the molecules is paired with its reported inhibition value.
target: Mitogen-activated protein kinase 9 (Homo sapiens); experiment: Inhibition of JNK2 (unknown origin) at 10 uM by radiometric assay relative to control
Expressed in %, but write only the number.

> print(dat)
                  compound.structure.string  val
1  O=C1N/C(=N\c2cccc(Cl)c2Cl)S/C1=C1\C(=O)Nc2ccc(N3CCCCC3)cc21   -6

Request: For the molecule O=C1N/C(=N\c2cccc(F)c2)S/C1=C1\C(=O)Nc2ccc(F)cc21 , report inhibition.
Response: 27.3

Request: For the molecule O=C1N/C(=N\c2cccc(Cl)c2)S/C1=C1\C(=O)Nc2ccc([N+](=O)[O-])cc21 , report inhibition.
Response: -7.5

Request: For the molecule O=C1N/C(=N\C2CCCCC2)S/C1=C1\C(=O)Nc2ccc(F)cc21 , report inhibition.
Response: 7

Request: For the molecule O=C1N/C(=N\c2ccccc2)S/C1=C1\C(=O)Nc2ccc(Cl)cc21 , report inhibition.
Response: -0.3

Request: For the molecule Cc1ccc2c(c1)/C(=C1/S/C(=N/c3cccc(Cl)c3Cl)NC1=O)C(=O)N2 , report inhibition.
Response: 7.5

Request: For the molecule O=C1N/C(=N\C2CCCC2)S/C1=C1\C(=O)Nc2ccc(F)cc21 , report inhibition.
Response: 8

Request: For the molecule O=C1N/C(=N\c2c(Cl)ccc(Cl)c2Cl)S/C1=C1\C(=O)Nc2ccc(F)cc21 , report inhibition.
Response: 2

* * *

Below, each of the compounds is paired with its reported inhibition value.
target: Mitogen-activated protein kinase 10 (Homo sapiens, UniProt P53779); experiment: Inhibition of JNK3 (unknown origin) at 10 uM by radiometric assay relative to control
Expressed in %, but write only the number.

> print(dat)
                   compound.structure.string                             tested.target  unit.info   val
 1  CN1C(=O)/C(=C2\S/C(=N/c3ccccc3Cl)NC2=O)c2cc(F)ccc21  Mitogen-activated protein kinase 10 (Homo sapiens, UniProt P53779)          %  44.7
 2  O=C1N/C(=N\c2cccc(F)c2Cl)S/C1=C1\C(=O)Nc2ccc(F)cc21  Mitogen-activated protein kinase 10 (Homo sapiens, UniProt P53779)          %    79
 3  O=C1N/C(=N\c2ccccc2)S/C1=C1\C(=O)Nc2ccc(F)cc21  Mitogen-activated protein kinase 10 (Homo sapiens, UniProt P53779)          %    -9
 4  O=C1N/C(=N\c2c(Cl)ccc(Cl)c2Cl)S/C1=C1\C(=O)Nc2ccc(F)cc21  Mitogen-activated protein kinase 10 (Homo sapiens, UniProt P53779)          %    82
 5  O=C1N/C(=N\c2cccc(F)c2F)S/C1=C1\C(=O)Nc2ccc(F)cc21  Mitogen-activated protein kinase 10 (Homo sapiens, UniProt P53779)          %    74
 6  O=C1N/C(=N\c2cccc(Cl)c2Cl)S/C1=C1\C(=O)Nc2ccc([N+](=O)[O-])cc21  Mitogen-activated protein kinase 10 (Homo sapiens, UniProt P53779)          %  80.5
 7  O=C1N/C(=N/c2cccc(Cl)c2)S/C1=C1\C(=O)Nc2ccc(I)cc21  Mitogen-activated protein kinase 10 (Homo sapiens, UniProt P53779)          %    68
 8  CCN(CC)CCC(=O)Nc1ccc2c(c1)/C(=C1/S/C(=N/c3cccc(Cl)c3Cl)NC1=O)C(=O)N2  Mitogen-activated protein kinase 10 (Homo sapiens, UniProt P53779)          %  95.5
 9  O=C1N/C(=N\c2ccccc2[N+](=O)[O-])S/C1=C1\C(=O)Nc2ccc(F)cc21  Mitogen-activated protein kinase 10 (Homo sapiens, UniProt P53779)          %  96.3
10  O=C1N/C(=N\c2ccccc2Cl)S/C1=C1\C(=O)Nc2ccccc21  Mitogen-activated protein kinase 10 (Homo sapiens, UniProt P53779)          %    82

Request: For the compound CCN(CC)CC(=O)Nc1ccc2c(c1)/C(=C1/S/C(=N/c3cccc(Cl)c3Cl)NC1=O)C(=O)N2 , report inhibition.
Response: 89

Request: For the compound O=C1S/C(=N\c2ccccc2Cl)N/C1=C1\C(=O)Nc2ccc(F)cc21 , report inhibition.
Response: 84.3

Request: For the compound O=C1N/C(=N\c2ccccc2Cl)S/C1=C1\C(=O)Nc2ccc(Cl)cc21 , report inhibition.
Response: 98

Request: For the compound CN1C(=O)/C(=C2/C(=O)Nc3ccc(F)cc32)S/C1=N/c1cccc(F)c1 , report inhibition.
Response: 11.7

Request: For the compound O=C1N/C(=N\c2ccccc2Cl)S/C1=C1\C(=O)Nc2ccc(Br)cc21 , report inhibition.
Response: 87.7

Request: For the compound Cc1ccc2c(c1)/C(=C1/S/C(=N/c3cccc(Cl)c3Cl)NC1=O)C(=O)N2 , report inhibition.
Response: 87

Request: For the compound O=C1N/C(=N\c2c(Cl)cccc2Cl)S/C1=C1\C(=O)Nc2ccc(F)cc21 , report inhibition.
Response: 76.5

Request: For the compound O=C1N/C(=N\c2cccc(F)c2)S/C1=C1\C(=O)Nc2ccc(Cl)cc21 , report inhibition.
Response: 57.3

Request: For the compound CN(C)CC(=O)Nc1ccc2c(c1)/C(=C1/S/C(=N/c3cccc(Cl)c3Cl)NC1=O)C(=O)N2 , report inhibition.
Response: 96.5

Every entry's value here was drawn from ChEMBL document CHEMBL5385877.
